target: GDP-bound KRAS protein (aa 1-169), containing both G12D and C118A amino acid substitutions (Homo sapiens (Human), UniProt P01116, C118A/G12D); assay: KRAS G12D Coupled Nucleotide Exchange Assay; type: biochemical; conditions: read-out: KRAS G12D Coupled Exchange IC50
Sequence (P01116 other isoform, or with tags, fused parts or gaps G12D/C118A): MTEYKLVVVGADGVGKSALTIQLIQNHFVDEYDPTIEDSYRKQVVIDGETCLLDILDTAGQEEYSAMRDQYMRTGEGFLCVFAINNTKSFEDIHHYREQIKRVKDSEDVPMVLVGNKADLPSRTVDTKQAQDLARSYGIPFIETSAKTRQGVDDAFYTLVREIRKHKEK
pIC50: −log10 of the molar value.
assay_endpoint: pIC50

P = Cc1cc2[nH]ncc2c2c1CCCn1ccc(n1)[C@H]1CCCN(C1)c1nc(OC[C@@]34CCCN3C[C@H](F)C4)nc3c(F)c-2ncc13 [Example 154]
Q = Cc1cc2[nH]ncc2c2c1CCCOC(=O)N[C@]1(C)CCCCN(C1)c1nc(OC[C@@]34CCCN3C[C@H](F)C4)nc3c(F)c-2ncc13 [Example 292]
R = Cc1cc2[nH]ncc2c2c1CCOC(=O)O[C@H]1C[C@@]3(CCCN(C3)c3nc(OC[C@@H]4CCCN4C)nc4c(F)c-2ncc34)C1 (single isomer, unassigned) [Example 325]
S = O=C1CCCCc2c(Cl)cc3[nH]ncc3c2-c2ncc3c(nc(OC[C@@]45CCCN4C[C@H](F)C5)nc3c2F)N2CC[C@@H]3CCN1[C@@H]3C2 [Example 61]
Inquiry: With regard to pIC50, arrange the entries in ascending order, please. Response field: labels, in requested order.
Reply text: R, S, P, Q
(R: 7.19, S: 7.47, P: 8.40, Q: 8.70)

----------
target: His-tagged KRAS G12D protein (Homo sapiens (Human), UniProt P01116, G12D); test: KRAS G12D TR-FRET Assay; assay type: binding; settings: read-out: KRAS G12D Binding IC50
Sequence (P01116 other isoform, or with tags, fused parts or gaps G12D): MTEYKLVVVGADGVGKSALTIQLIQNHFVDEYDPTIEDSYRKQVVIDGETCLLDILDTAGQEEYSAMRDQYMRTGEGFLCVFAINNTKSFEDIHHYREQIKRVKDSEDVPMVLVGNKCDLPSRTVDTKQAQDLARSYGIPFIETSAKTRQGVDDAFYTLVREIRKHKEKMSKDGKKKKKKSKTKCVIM
pIC50: −log10 of the molar value.
assay_endpoint: pIC50

A = Cc1cc2[nH]ncc2c2c1CCCOC(=O)O[C@@H]1COCCN(C1)c1nc(OC[C@@]34CCCN3C[C@H](F)C4)nc3c(F)c-2ncc13
B = O[C@@H]1c2ncc(o2)CCc2c(Cl)cc3[nH]ncc3c2-c2ncc3c(nc(OC[C@@]45CCCN4C[C@H](F)C5)nc3c2F)N2CCC[C@@H]1C2
C = C[C@@]12CCCN(C1)c1nc(OC[C@@]34CCCN3C[C@H](F)C4)nc3c(F)c(ncc13)-c1cccc3ccc(F)c(c13)CC[C@@H](F)C(=O)N2
Inquiry: With regard to pIC50, arrange the entries in ascending order, please. Response field: labels, in requested order.
Reply text: C, B, A

----------
target: GDP-bound KRAS protein (aa 1-169), containing both G12D and C118A amino acid substitutions (Homo sapiens (Human), UniProt P01116, C118A/G12D); test: KRAS G12D Coupled Nucleotide Exchange Assay; type: biochemical; details: read-out: KRAS G12D Coupled Exchange IC50
assay_endpoint: IC50 (nM)

A = Cc1cc2[nH]ncc2c2c1CCCC(F)C(=O)N[C@@H]1COCCN(C1)c1nc(OC[C@@]34CCCN3C[C@H](F)C4)nc3c(F)c-2ncc13 (mixture of isomers)
B = Cc1cc2[nH]ncc2c2c1CCC[C@H](F)C(=O)N(C)[C@@H]1CCCN(C1)c1nc(OC[C@@]34CCCN3C[C@H](F)C4)nc3c(F)c-2ncc13
Inquiry: Hi, I'm comparing two records. Which one has the lower IC50, A or B ? Reply briefly: the label of your chosen item.
Reply text: B
(B: 5 nM, A: 14 nM)
